Measured Population Mitotic Cells (%) values are reported for all entries that follow.
Tested on: U2OS
Assay: Multiplex assay against U2OS
Format: toxicity, cell-based
Details: human, 24 h, 1 µM, compound concentration 1 uM, replicate 1
Report the value in % with no unit label.

compound	target	Population Mitotic Cells (%)
CCn1c(=O)c(-c2ccc(-c3cncs3)cc2Cl)cc2cnc(Nc3ccc(N4CCN(C)CC4)cc3)nc21	U2OS	61
CN1C2CCC1CC(OC(c1ccc(F)cc1)c1ccc(F)cc1)C2.Cl (stereo not drawn)	U2OS	50

Next up:
Find the measured Population Mitotic Cells (%): item CCn1cc(-c2ccnc3[nH]c(-c4cccc(CN(C)C)c4)cc23)c(-c2ccc(NC(=O)N(C)C)cc2)n1 , target or system U2OS. 61

====

System: Fibroblast
Test: Multiplex assay against human fibroblast
Assay type: toxicity, cell-based
Conditions: 12 h, 1 µM, compound concentration 1 uM, replicate 2
Please note: Population Apoptotic (%) exactly at 30% is False. Only values below 30% get True.

molecule	discrete_label
O=C1NC(=O)C(c2cnc3ccccn23)=C1c1cn2c3c(cc(F)cc13)CN(C(=O)N1CCCCC1)CC2	False
O=C(Nc1cccnn1)N1CCC(=Cc2cccc(Oc3ccc(C(F)(F)F)cn3)c2)CC1	False
CCOC(=O)c1c(C)[nH]c2ccc3c(c12)CN1CCc2cc(OC)ccc2C1O3 (configuration not stated)	True

Dear colleague, could you confirm whether Population Apoptotic (%) of CCOc1cc(C(=O)N2CCC(N3CCN(C)CC3)CC2)ccc1Nc1ncc2c(n1)N(C1CCCC1)c1ccccc1C(=O)N2C falls below 30%? Thanks. False

Dear colleague, could you confirm whether Population Apoptotic (%) of COc1cc2ncnc(Nc3ccc(F)c(Cl)c3)c2cc1NC(=O)/C=C/CN1CCCCC1 [DACOMITINIB ANHYDROUS] falls below 30%? Thanks. False

Dear colleague, could you confirm whether Population Apoptotic (%) of S=C(NCCCc1c[nH]cn1)NCCCN(Cc1ccc(Cl)c(Cl)c1)c1ccc(Br)cn1 falls below 30%? Thanks. True

====

System: HEK-293T
Assay: Multiplex assay against HEK293T
Format: toxicity, cell-based
Details: human, 24 h, 10 µM, compound concentration 10 uM, replicate 2
Measured Total Cell Count values are reported for all entries that follow.
Respond using a number only.

molecule	measured_number
S=C(NCCCc1c[nH]cn1)NCCCN(Cc1ccc(Cl)c(Cl)c1)c1ccc(Br)cn1	231
C=C1/C(=C\C=C2/CCC[C@]3(C)[C@@H]([C@H](C)/C=C/[C@H](C)C(C)C)CC[C@@H]23)C[C@@H](O)C[C@@H]1O [DOXERCALCIFEROL]	255
COc1cccc2cc(-c3nc([C@H]4CC[C@H](C(=O)O)CC4)n4ncnc(N)c34)[nH]c12 [OSI-027]	1604
O=C1NC(=O)C(c2cnc3ccccn23)=C1c1cn2c3c(cc(F)cc13)CN(C(=O)N1CCCCC1)CC2 [LY-2090314]	148
CCc1cccc(CC)c1NC(=O)c1nn(C)c2c1CCc1cnc(Nc3ccc(N4CCN(C)CC4)cc3OC)nc1-2	1777
CCn1cc(-c2ccnc3[nH]c(-c4cccc(CN(C)C)c4)cc23)c(-c2ccc(NC(=O)N(C)C)cc2)n1 [GSK-1070916]	1112

Find the measured Total Cell Count: item CCCS(=O)(=O)c1nc(NC2CC2)cc(-c2ccc3c(ccn3C3CC(C)(C)NC(C)(C)C3)c2)n1 , target or system HEK-293T. 249

====

Measured Growth Rate values are reported for all entries that follow.
System: U2OS
Experiment: Incucyte cell viability with U2OS; further: filed as whole numbers so only -1 and 0 and 1 occur
Type: toxicity, cell-based
Settings: human, 18 h, 10 µM, compound concentration 10 uM, replicate number 1, timepoint 18 hours
Respond using a number only.

mol_smiles	result_type	measured_number
O=C1NC(=O)C(c2cnc3ccccn23)=C1c1cn2c3c(cc(F)cc13)CN(C(=O)N1CCCCC1)CC2	Growth Rate	0
CC(=O)N1CCC(c2ccc(C(=O)NC(=N)N)cc2C(F)(F)F)CC1	Growth Rate	1
CCC[C@H](Oc1cc(C)c(-n2cc(C(F)(F)F)cn2)c(C)c1)c1ccc(C(=O)NCCC(=O)O)cc1	Growth Rate	0
CC(C)NC(=O)c1ccc(C#Cc2ccncc2)cn1	Growth Rate	1
O=C(Nc1ccc(-n2nc(-c3cccnc3)cc2C(F)(F)F)cn1)c1ccc(-c2ccccc2)c(F)c1	Growth Rate	0
Cc1c(C(=O)O)cc(-c2ccc(C3CCNCC3)cc2)c2ccc(-c3ccc(C(F)(F)F)cc3)cc12.Cl	Growth Rate	0

What does the record list as Growth Rate for Cc1nc(NC(=O)N2CCC[C@H]2C(N)=O)sc1-c1ccnc(C(C)(C)C(F)(F)F)c1 ? 0

====

Test system: HEK-293T
Assay: Multiplex assay against HEK293T
Format: toxicity, cell-based
Details: human, 24 h, 10 µM, compound concentration 10 uM, replicate 1
Measured Population Mitochondria Different-Phenotype (%) values are reported for all entries that follow.
Report the value in % with no unit label.

The following compounds have reported results that may help.
compound	target	measured_number
Cc1ccc(C(=O)Nc2cccc(C(F)(F)F)c2)cc1Nc1nc(-c2cccnc2)nc2c1cnn2C	HEK-293T	100
COc1ccc(S(=O)(=O)N(CCO)c2ccccc2CN(C)C/C=C/c2ccc(Cl)cc2)cc1.O=P(O)(O)O	HEK-293T	8
COC(=N)c1nc2ccc3ncnc(Nc4ccc(OC)cc4F)c3c2s1	HEK-293T	2

What does the record list as Population Mitochondria Different-Phenotype (%) for CCN1CCN(Cc2ccc(Nc3ncc(F)c(-c4cc(F)c5nc(C)n(C(C)C)c5c4)n3)nc2)CC1.CS(=O)(=O)O ? 0

What does the record list as Population Mitochondria Different-Phenotype (%) for Cc1cn(-c2cc(NC(=O)c3ccc(C)c(Nc4nccc(-c5cccnc5)n4)c3)cc(C(F)(F)F)c2)cn1 [NILOTINIB] ? 50

What does the record list as Population Mitochondria Different-Phenotype (%) for COc1ccc(-c2ccc3c(N4CCOCC4)nc(N4C[C@@H](C)O[C@@H](C)C4)nc3n2)cc1CO [Ku-0063794] ? 9

What does the record list as Population Mitochondria Different-Phenotype (%) for S=C(NCCCc1c[nH]cn1)NCCCN(Cc1ccc(Cl)c(Cl)c1)c1ccc(Br)cn1 ? 85

What does the record list as Population Mitochondria Different-Phenotype (%) for CCOC(=O)c1c(C)[nH]c2ccc3c(c12)CN1CCc2cc(OC)ccc2C1O3 (stereo unspecified) ? 94

What does the record list as Population Mitochondria Different-Phenotype (%) for O=C(Nc1cccnn1)N1CCC(=Cc2cccc(Oc3ccc(C(F)(F)F)cn3)c2)CC1 ? 2

What does the record list as Population Mitochondria Different-Phenotype (%) for CCCS(=O)(=O)Nc1ccc(F)c(C(=O)c2c[nH]c3ncc(Cl)cc23)c1F [PLX-4720] ? 2

What does the record list as Population Mitochondria Different-Phenotype (%) for O=C(Nc1ccc(-c2ccnc(Nc3ccc(N4CCOCC4)cc3)n2)cc1)[C@@H]1CCCN1 ? 98

====

Test system: Fibroblast
Assay: Multiplex assay against human fibroblast
Format: toxicity, cell-based
Settings: 24 h, 10 µM, compound concentration 10 uM, replicate 1
The label depends only on Population Normal (%): Met if it is at least 80%, Not met if it is smaller.

// known answers, use as guide
molecule	discrete_label
CN(C)C(=O)C(CCN1CCC(O)(c2ccc(Cl)cc2)CC1)(c1ccccc1)c1ccccc1.Cl [LOPERAMIDE HYDROCHLORIDE]	Not met
CCN1CCN(Cc2ccc(Nc3ncc(F)c(-c4cc(F)c5nc(C)n(C(C)C)c5c4)n3)nc2)CC1.CS(=O)(=O)O	Not met
NC(=O)c1cccc(-c2cc(Nc3ccc(OC(F)(F)F)cc3)ncn2)c1	Met

Consider the additional molecule presented here.
Evaluate Cc1cn(-c2cc(NC(=O)c3ccc(C)c(Nc4nccc(-c5cccnc5)n4)c3)cc(C(F)(F)F)c2)cn1 : Population Normal (%) at minimum 80%? Not met

====

System: Fibroblast
Experiment: Multiplex assay against human fibroblast
Type: toxicity, cell-based
Conditions: 48 h, 10 µM, compound concentration 10 uM, replicate 1
Measured Population Fragmented Nuclei (%) values are reported for all entries that follow.

The following compounds have reported results that may help.
compound	result
CCOC(=O)c1c(C)[nH]c2ccc3c(c12)CN1CCc2cc(OC)ccc2C1O3 (stereo not drawn)	36%
O=C1NC(=O)C(c2cnc3ccccn23)=C1c1cn2c3c(cc(F)cc13)CN(C(=O)N1CCCCC1)CC2	28%
O=C(Cc1ccc(-c2ccc(OCCN3CCOCC3)cc2)cn1)NCc1ccccc1	38%
O=C(Nc1ccc(-c2ccnc(Nc3ccc(N4CCOCC4)cc3)n2)cc1)[C@@H]1CCCN1	44%
C=C1/C(=C\C=C2/CCC[C@]3(C)[C@@H]([C@H](C)/C=C/[C@H](C)C(C)C)CC[C@@H]23)C[C@@H](O)C[C@@H]1O	33%
CCn1c(=O)c(-c2ccc(-c3cncs3)cc2Cl)cc2cnc(Nc3ccc(N4CCN(C)CC4)cc3)nc21	44%

What does the record list as Population Fragmented Nuclei (%) for CCCS(=O)(=O)c1nc(NC2CC2)cc(-c2ccc3c(ccn3C3CC(C)(C)NC(C)(C)C3)c2)n1 ? 59%

What does the record list as Population Fragmented Nuclei (%) for CN(C)C(=O)C(CCN1CCC(O)(c2ccc(Cl)cc2)CC1)(c1ccccc1)c1ccccc1.Cl [LOPERAMIDE HYDROCHLORIDE] ? 36%

What does the record list as Population Fragmented Nuclei (%) for S=C(NCCCc1c[nH]cn1)NCCCN(Cc1ccc(Cl)c(Cl)c1)c1ccc(Br)cn1 ? 34%

What does the record list as Population Fragmented Nuclei (%) for O=C(Nc1ccc(Cl)cc1)Nc1cccc(-c2cccc(N3CCCC3)n2)c1 ? 19%
